# experimental_details: chemical genetic growth profiling, strain panel (AID 1159580);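 also: tested at 20 µM; growth read once vehicle control cultures reached saturation at 30 °C; 1 = growth at the plate median or of vehicle wells; lower values mean less growth of the strain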
# test_conditions: S. cerevisiae deletion strains, growth OD, strain NNK1, active compounds read low
About 2,000 (36%) of roughly 5,500 compounds were called active. Not shown: some 18% with an inconclusive outcome. The list shows a part of the results.
For each record, write down the corresponding normalized growth.
Answers are plain numbers.

OC1(C(F)(F)F)CC(C23CC4CC(CC(C4)C2)C3)=NN1 (stereo not given)
0.921
Cc1c(Cc2ccc(F)cc2)c(=O)oc2cc(O)ccc12
0.984
Cc1ccc(-c2csc(-c3cccnc3)n2)c(C)c1
0.947
O=S(=O)(Nc1cccc2nsnc12)c1cc(Cl)sc1Cl
0.969
Cc1cc(C(=O)Nc2ccc(Cl)cc2)nn1C(C)(C)C
0.984

Report normalized growth for each item below.
1. Cc1ccc(Sc2c(Sc3ccc(C)cc3)c(=O)c2=O)cc1
2. COc1ccc(NNC(=O)c2sc3ccccc3c2Cl)cc1
3. Cc1ccccc1C(=O)Oc1ccc(C(F)(F)F)cc1[N+](=O)[O-]
4. Cc1nn(Cc2cccc(C(=O)Nc3ccc(Cl)cc3)c2)c(C)c1Br
5. COc1cc2c(cc1OC)C(C)N(C(=O)c1sc3ccccc3c1Cl)CC2 (stereo not given)
6. COc1cc(NC(=S)NC(=O)c2ccccc2)c(OC)cc1Cl

result:
1. 0.963
2. 0.908
3. 0.941
4. 0.982
5. 0.972
6. 0.981
